Tested on: rat hepatocytes
Test: Hepatocyte assay to determine the metabolic stability
Type: in vitro ADME
Conditions: after incubation with rat hepatocytes
So basically: is CLblood, calculated blood clearance (well stirred model) under 7 mL/min/kg? Then true (1). Not under? Then false (0).

Inquiry: Determine whether this compound shows CLblood, calculated blood clearance (well stirred model) lower than 7 mL/min/kg (ties excluded): CC1=C(C#N)[C@@H](c2ccc(C#N)cc2S(C)(=O)=O)N(c2ccc(C#N)cc2)C(=O)N1c1cccc(C(F)(F)F)c1
Reply text: true (1)

Inquiry: And CC1=C(C#N)[C@@H](c2ccc(C#N)cc2S(C)(=O)=O)N(S(=O)(=O)c2cn(C)c(C)n2)C(=O)N1c1cccc(C(F)(F)F)c1 ?
Reply text: false (0)

Inquiry: And CC1=C(C#N)[C@@H](c2ccc(C#N)cc2S(C)(=O)=O)N(S(=O)(=O)c2ccccc2OC(F)(F)F)C(=O)N1c1cccc(C(F)(F)F)c1 ?
Reply text: true (1)

Inquiry: And CN1CC2=C(C1=O)[C@@H](c1ccc(C#N)cc1S(C)(=O)=O)N(C)C(=O)N2c1cccc(C(F)(F)F)c1 ?
Reply text: false (0)

Inquiry: And CC1=C(C#N)[C@@H](c2ccc(C#N)cc2S(C)(=O)=O)NC(=O)N1c1cccc(C(F)(F)F)c1 ?
Reply text: true (1)
